SYSTEM_TESTED: Dual specificity tyrosine-phosphorylation-regulated kinase 1A (Homo sapiens)
PROTOCOL: Inhibition of human recombinant DYRK1A expressed in Escherichia coli using [gamma-33P]ATP after 30 mins
MEASURED_PARAMETER: IC50 (µM)
# number only, unit µM dropped from output

Could you share which IC50 value was measured for COc1ccc(-c2c3c4cc(OC)c(O)cc4oc(=O)c3n3ccc4cc(O)c(OC)cc4c23)cc1O ?
0.035
